target-or-test-system: recombinant Mcl-1 (residues 172-327) (Homo sapiens (Human))
Sequence (Q07820 172-327): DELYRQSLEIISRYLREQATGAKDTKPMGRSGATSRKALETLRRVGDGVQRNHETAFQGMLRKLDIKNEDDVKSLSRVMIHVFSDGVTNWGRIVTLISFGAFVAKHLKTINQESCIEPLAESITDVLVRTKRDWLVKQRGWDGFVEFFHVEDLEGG
experiment-notes: Bak peptide fluorescence polarization anisotropy competition assay, Mcl-1
Type: binding
recorded-conditions: read-out: Ki for inhibition of Mcl-1
pKi: −log10 of the molar value.
Property: pKi; scope: individual compounds

{"compound": "Cc1cc(OCCCc2c(C(=O)NS(=O)(=O)CCOc3ccccc3)[nH]c3ccccc23)cc(C)c1Cl [Example 141]", "observed-measurement": "6.30 to 6.52"}
{"compound": "Cc1cc(OCCCc2c(C(=O)NS(=O)(=O)CCNC(=O)c3cccn3Cc3cccc(Cl)c3)[nH]c3cc(Cl)ccc23)cc(C)c1Cl [Example 243]", "observed-measurement": "6.30 to 6.52"}
{"compound": "Cc1cc(OCCCc2c(C(=O)NS(=O)(=O)CCNC(=O)CC3CCCCC3)[nH]c3ccccc23)cc(C)c1Cl [Example 152]", "observed-measurement": "5.00 to 6.00"}
{"compound": "COc1ccc(S(=O)(=O)NCCS(=O)(=O)NC(=O)c2[nH]c3ccccc3c2CCCOc2cc(C)c(Cl)c(C)c2)cc1 [Example 147]", "observed-measurement": "6.30 to 6.52"}
{"compound": "O=C(O)c1sc2c(-c3ccccc3)cccc2c1CCCOc1cccc2ccccc12 [Example 11]", "observed-measurement": "6.00 to 6.30"}

Kindly review the next compound as well.
Returns the measured pKi for the input compound. Input: Cc1cc(OCCCc2c(C(=O)NS(=O)(=O)CCNC(=O)c3ccc4c(ccn4C)c3)[nH]c3ccccc23)cc(C)c1Cl [Example 196] 6.30 to 6.52

Numbers sourced from patent US10844032B2.
